Please consider the recorded MIC50 for M.catarrhalis in what follows.
Report the figure in µg/mL without appending any unit label.

# compound, unit-annotation, endpoint-result
measured = [
    ("CON1CC/C(=C\\C2=C(C(=O)O)N3C(=O)[C@@H](NC(=O)/C(=N\\O)c4csc(N)n4)[C@H]3SC2)C1=O", "µg/mL", 4),
    ("C=CC1=C(C(=O)O)N2C(=O)[C@@H](NC(=O)/C(=N\\O)c3csc(N)n3)[C@H]2SC1 [Cefdinir, reference compound]", "µg/mL", 0.25),
]

Exercise: Give the measured MIC50 of Nc1nc(/C(=N/O)C(=O)N[C@@H]2C(=O)N3C(C(=O)O)=C(/C=C4\CCN(CC(F)(F)F)C4=O)CS[C@H]23)cs1 .
Key: 4

====

The compounds listed here are annotated with their MIC.
# Test system: S.aureus 734 MRSA
# assay-summary: Antibacterial spectrum (MIC), agar dilution
# Type: cell-based
# condition-label: Staphylococcus aureus, read-out: MIC
# Description: In vitro activity was determined by minimum inhibitory concentration in a microorganism spectum by the agar dilution method in Mueller Hinton agar.
Reply numerically in mg/L, unit not repeated.

Consider the reported MIC for these compounds:
# input-smiles, measure-name, endpoint-result
records = [
    ("Nc1nc(/C(=N/O)C(=O)N[C@@H]2C(=O)N3C(C(=O)O)=C(/C=C4\\CCN(CC5CC5)C4=O)CS[C@H]23)cs1", "MIC", 8),
    ("Nc1nc(/C(=N/O)C(=O)N[C@@H]2C(=O)N3C(C(=O)O)=C(/C=C4\\CCN(c5cnccn5)C4=O)CS[C@H]23)cs1", "MIC", 8),
    ("N#CCN1CC/C(=C\\C2=C(C(=O)O)N3C(=O)[C@@H](NC(=O)/C(=N\\O)c4csc(N)n4)[C@H]3SC2)C1=O", "MIC", 4),
    ("Nc1nc(/C(=N/O)C(=O)N[C@@H]2C(=O)N3C(C(=O)O)=C(/C=C4\\CCN(c5ccccc5)C4=O)CS[C@H]23)cs1", "MIC", 8),
    ("C=CCN1CC/C(=C\\C2=C(C(=O)O)N3C(=O)[C@@H](NC(=O)/C(=N\\O)c4csc(N)n4)[C@H]3SC2)C1=O", "MIC", 16),
]

Now look at this one.
Exercise: Returns the measured MIC for the input compound. Input: CON1CC/C(=C\C2=C(C(=O)O)N3C(=O)[C@@H](NC(=O)/C(=N\O)c4csc(N)n4)[C@H]3SC2)C1=O
Key: 16

====

# System: N.meningitidis 69480
# assay-summary: Antibacterial spectrum (MIC), agar dilution
# Format: cell-based
# condition-label: Neisseria meningitidis, read-out: MIC
Reported MIC values are given for each entry in this list.

Solved cases (5 shown):
# molecule, MIC
records = [
    ("Nc1nc(/C(=N/O)C(=O)N[C@@H]2C(=O)N3C(C(=O)O)=C(/C=C4\\CCN(CC5CC5)C4=O)CS[C@H]23)cs1 [N]", "0.25 µg/mL"),
    ("Nc1nc(/C(=N/O)C(=O)N[C@@H]2C(=O)N3C(C(=O)O)=C(/C=C4\\CCN(CCF)C4=O)CS[C@H]23)cs1 [F]", "≤ 0.06 µg/mL"),
    ("C=CCN1CC/C(=C\\C2=C(C(=O)O)N3C(=O)[C@@H](NC(=O)/C(=N\\O)c4csc(N)n4)[C@H]3SC2)C1=O [L]", "≤ 0.06 µg/mL"),
    ("CON1CC/C(=C\\C2=C(C(=O)O)N3C(=O)[C@@H](NC(=O)/C(=N\\O)c4csc(N)n4)[C@H]3SC2)C1=O [G]", "≤ 0.06 µg/mL"),
    ("CC(C)(C)N1CC/C(=C\\C2=C(C(=O)O)N3C(=O)[C@@H](NC(=O)/C(=N\\O)c4csc(N)n4)[C@H]3SC2)C1=O [J]", "0.12 µg/mL"),
]

Exercise: # lookup: MIC of CO/N=C(\C(=O)N[C@@H]1C(=O)N2C(C(=O)O)=C(CSc3nc(=O)c(=O)[nH]n3C)CS[C@H]12)c1csc(N)n1 [Ceftriaxone, reference compound]
Key: < 0.01 µg/mL

Exercise: Need MIC, item COc1ccc(N2CC/C(=C\C3=C(C(=O)O)N4C(=O)[C@@H](NC(=O)/C(=N\O)c5csc(N)n5)[C@H]4SC3)C2=O)cc1 [I]
Key: ≤ 0.06 µg/mL

Exercise: Record request: MIC value, item N#CCN1CC/C(=C\C2=C(C(=O)O)N3C(=O)[C@@H](NC(=O)/C(=N\O)c4csc(N)n4)[C@H]3SC2)C1=O [M]
Key: ≤ 0.06 µg/mL

Exercise: Fill blank: measured MIC of the molecule Nc1nc(/C(=N/O)C(=O)N[C@@H]2C(=O)N3C(C(=O)O)=C(/C=C4\CCN(c5ccccc5)C4=O)CS[C@H]23)cs1 [H] is ____.
Key: 0.12 µg/mL

Exercise: What MIC value was documented for this molecule, C=CC1=C(C(=O)O)N2C(=O)[C@@H](NC(=O)/C(=N\O)c3csc(N)n3)[C@H]2SC1 [Cefdinir, reference compound] ?
Key: ≤ 0.06 µg/mL

Exercise: MIC for C#CCN1CC/C(=C\C2=C(C(=O)O)N3C(=O)[C@@H](NC(=O)/C(=N\O)c4csc(N)n4)[C@H]3SC2)C1=O [O] ?
Key: 0.25 µg/mL

Exercise: For the molecule shown here, Nc1nc(/C(=N/O)C(=O)N[C@@H]2C(=O)N3C(C(=O)O)=C(/C=C4\CCN(c5cnccn5)C4=O)CS[C@H]23)cs1 [P] , give the reported MIC.
Key: 0.5 µg/mL

Exercise: Requested read-out: MIC. Entry: Nc1nc(/C(=N/O)C(=O)N[C@@H]2C(=O)N3C(C(=O)O)=C(/C=C4\CCN(CC(F)(F)F)C4=O)CS[C@H]23)cs1 [E]
Key: ≤ 0.06 µg/mL

Exercise: Fill blank: measured MIC of the molecule Nc1nc(/C(=N/O)C(=O)N[C@@H]2C(=O)N3C(C(=O)O)=C(/C=C4\CCN(C5CC5)C4=O)CS[C@H]23)cs1 [D] is ____.
Key: ≤ 0.06 µg/mL
